# System tested: mu opiate receptor (MOR) (Rattus norvegicus, UniProt P33535)
# Construct: from tissue; host or cells: striatum (membrane preparation)
# Sequence (P33535 whole entry): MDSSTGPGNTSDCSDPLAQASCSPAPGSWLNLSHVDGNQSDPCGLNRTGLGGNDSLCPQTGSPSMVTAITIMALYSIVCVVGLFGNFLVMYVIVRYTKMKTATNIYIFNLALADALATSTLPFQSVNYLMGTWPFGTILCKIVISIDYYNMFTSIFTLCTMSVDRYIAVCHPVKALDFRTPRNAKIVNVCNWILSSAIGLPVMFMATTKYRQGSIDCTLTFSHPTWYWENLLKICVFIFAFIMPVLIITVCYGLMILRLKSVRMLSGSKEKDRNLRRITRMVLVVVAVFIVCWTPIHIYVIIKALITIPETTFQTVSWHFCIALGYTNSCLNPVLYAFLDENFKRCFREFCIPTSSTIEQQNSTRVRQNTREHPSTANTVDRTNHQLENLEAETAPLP
# Format: biochemical
Kindly supply the reported [35S]GTPγS binding, FLNA-Binding Compound as Agonist at 0.1 μM values for the records listed here.

Examples from the recorded data:
{"Compound": "COc1ccc(S(=O)(=O)N2CCOC23CCN(CC2CC2)CC3)cc1 [Compound C0090M]", "System tested": "mu opiate receptor (MOR) (Rattus norvegicus, UniProt P33535)", "Observed value": "237.0%"}
{"Compound": "CCc1ccc(S(=O)(=O)N2CCOC23CCN(CC2CC2)CC3)cc1 [Compound C0135M]", "System tested": "mu opiate receptor (MOR) (Rattus norvegicus, UniProt P33535)", "Observed value": "161.3%"}
{"Compound": "CC(=O)c1ccc(S(=O)(=O)N2C(Cc3c[nH]cn3)C(=O)NC23CCNCC3)cc1 (stereo not drawn) [Compound C0119M]", "System tested": "mu opiate receptor (MOR) (Rattus norvegicus, UniProt P33535)", "Observed value": "105.7%"}
{"Compound": "CC(=O)c1ccc(S(=O)(=O)N2CCC3(CC2)OCCN3S(=O)(=O)c2ccc(C(C)=O)cc2)cc1", "System tested": "mu opiate receptor (MOR) (Rattus norvegicus, UniProt P33535)", "Observed value": "217.0%"}
{"Compound": "CC(=O)c1ccc(S(=O)(=O)N2CC(=O)NC23CCNCC3)cc1 [Compound C0086M]", "System tested": "mu opiate receptor (MOR) (Rattus norvegicus, UniProt P33535)", "Observed value": "206.8%"}

Could you share which [35S]GTPγS binding, FLNA-Binding Compound as Agonist at 0.1 μM value was measured for CC(=O)c1ccc(S(=O)(=O)N2CC(CN(C)C)OC23CCNCC3)cc1 (stereo not drawn) [Compound C0118M] ?
166.2%

###

# System tested: mu opiate receptor (MOR) (Rattus norvegicus, UniProt P33535)
# Construct: from tissue; host or cells: striatum (membrane preparation)
# Format: biochemical
# Reported conditions: [35S]GTPγS binding to Gαo in striatal membranes; compound 1 μM
# label = condition met if Concentration of FLNA-Binding Compound as Agonist 1 μM >= 200% else condition not met

{"Compound": "OC(COc1ccc(Br)c(F)c1)CN1CCc2ccccc2C1 (centres unmarked)", "Answer label": "condition not met"}
{"Compound": "COc1c2c(cc3c1C(CC(=O)Cc1ccccc1F)[N+](C)(C)CC3)OCO2 (centres unmarked)", "Answer label": "condition met"}

Could you verify whether the entry COc1cc(CC(=O)CC2c3c(cc4c(c3OC)OCO4)CC[N+]2(C)C)cc(OC)c1OC (centres unmarked) shows Concentration of FLNA-Binding Compound as Agonist 1 μM of no less than 200%?
condition met

Could you verify whether the entry CC1CCC(C(C)C)C(OCC(O)CN(C(C)C)C(C)C)C1 (centres unmarked) shows Concentration of FLNA-Binding Compound as Agonist 1 μM of no less than 200%?
condition met

Could you verify whether the entry COc1c2c(cc3c1C(CC(=O)Cc1ccc(C#N)cc1)[N+](C)(C)CC3)OCO2 (centres unmarked) shows Concentration of FLNA-Binding Compound as Agonist 1 μM of no less than 200%?
condition met

Could you verify whether the entry CC1CN(CC(O)COC2CCCCC2)CC(C)O1 (centres unmarked) shows Concentration of FLNA-Binding Compound as Agonist 1 μM of no less than 200%?
condition met

Could you verify whether the entry CC1CCC(C(C)C)C(OCC(O)CN2CCCC2=O)C1 (centres unmarked) shows Concentration of FLNA-Binding Compound as Agonist 1 μM of no less than 200%?
condition not met

Could you verify whether the entry CN(C)c1cccc(OCC(O)CN2CCc3ccccc3C2)c1 (centres unmarked) shows Concentration of FLNA-Binding Compound as Agonist 1 μM of no less than 200%?
condition not met

Could you verify whether the entry `Cc1cccc(S(=O)(=O)N2CCC3(CC2)OCCN3S(=O)(=O)c2cccc(C)c2)c1` shows Concentration of FLNA-Binding Compound as Agonist 1 μM of no less than 200%?
condition not met

Could you verify whether the entry COc1c2c(cc3c1C(CC(=O)c1ccc(N4CCOCC4)cc1)[N+](C)(C)CC3)OCO2 (centres unmarked) shows Concentration of FLNA-Binding Compound as Agonist 1 μM of no less than 200%?
condition met

Could you verify whether the entry `Nc1ccc(C(=O)N2CCC3(CC2)OCCN3S(=O)(=O)c2ccc(N)cc2)cc1` shows Concentration of FLNA-Binding Compound as Agonist 1 μM of no less than 200%?
condition met

Could you verify whether the entry COc1c2c(cc3c1C(CC(=O)CCc1ccc(Cl)cc1)[N+](C)(C)CC3)OCO2 (centres unmarked) shows Concentration of FLNA-Binding Compound as Agonist 1 μM of no less than 200%?
condition not met

Could you verify whether the entry `COc1ccc(C(=O)N2CCC3(CC2)OCCN3C(=O)c2ccc(OC)cc2)cc1` shows Concentration of FLNA-Binding Compound as Agonist 1 μM of no less than 200%?
condition met

Could you verify whether the entry COc1ccccc1CC(=O)CC1c2c(cc3c(c2OC)OCO3)CC[N+]1(C)C (centres unmarked) shows Concentration of FLNA-Binding Compound as Agonist 1 μM of no less than 200%?
condition met

Could you verify whether the entry O=C1CN(Cc2ccccc2)C2(CCN(S(=O)(=O)c3cc(Cl)c(O)c(Cl)c3)CC2)N1 [Compound C0139M] shows Concentration of FLNA-Binding Compound as Agonist 1 μM of no less than 200%?
condition met

Could you verify whether the entry `CS(=O)(=O)c1ccc(S(=O)(=O)N2CCC3(CC2)OCCN3S(=O)(=O)c2ccc(S(C)(=O)=O)cc2)cc1` shows Concentration of FLNA-Binding Compound as Agonist 1 μM of no less than 200%?
condition met
